These entries and their values trace back to PubChem BioAssay (NCI).

# Tested on: CAKI-1 renal
# assay-procedure: NCI tumour cell line growth inhibition, 48 h
property: TGI (µM)
Answer with a number only, understood to be in µM.

What value of TGI has been reported for the following compound? "CN1C(=O)c2cc([N+](=O)[O-])ccc2[C@H]2C(=O)c3cc4c(cc3[C@H]21)OCO4" 0.228

Consider the compound CCCCCCCCCCCCCC(=O)OC(/C=C/C(C)C)C(O)C(O)C(OC)C(=O)NC1CCCCNC1=O (centres undefined) and give its measured TGI. 3.81

TGI for "CCCC(=O)/C=C/S/C=C/C(=O)CCC" ? 7.4

Consider the compound "O=C1/C(=C/c2ccc(Cl)cc2)CN(Cc2cn(CCNc3ccnc4cc(Cl)ccc34)nn2)C/C1=C\c1ccc(Cl)cc1" and give its measured TGI. 1.57
